# experimental details: Lipid degradability by mouse lung S9 in vitro
# Assay type: in vitro ADME
# assay context: 2 μM lipid, 2.4 mg/ml lung S9, pH 7.4, 37° C.
# Description: Lipid degradability by MOUSE/HUMAN lung S9 in vitro Assay format—4 or 5 time points in triplicate. […]
This section presents compounds with their documented In vitro degradation Mouse lung S9 values.
Your answer is read as h, so omit the unit and give the number.

Please review the entries below; each comes with its answer.
# In vitro degradation Mouse lung S9 lookup, item COc1cc(C(=O)OCCNC(=N)N)cc(OC)c1OC(=O)CCO[C@H]1CC[C@@]2(C)C(=CC[C@H]3[C@@H]4CC[C@H]([C@H](C)CCCC(C)C)[C@@]4(C)CC[C@@H]32)C1
50.1

Looking for the measured In vitro degradation Mouse lung S9 of COc1cc(C(=O)OCCCNC(=N)N)cc(OC)c1OC(=O)CCO[C@H]1CC[C@@]2(C)C(=CC[C@@H]3C2CC[C@]2(C)[C@@H]([C@H](C)CCCC(C)C)CC[C@@H]32)C1 (stereo partly shown) , can you help?
69.6

Continuing:
# In vitro degradation Mouse lung S9 lookup, item COc1cc(C(=O)OCCCN(C)C)cc(OC)c1OC(=O)CCO[C@H]1CC[C@@]2(C)C(=CC[C@H]3[C@@H]4CC[C@H]([C@H](C)CCCC(C)C)[C@@]4(C)CC[C@@H]32)C1
39.3

Requested field: In vitro degradation Mouse lung S9. Item: COc1cc(C(=O)OCCN(C)C)cc(OC)c1OC(=O)CCC(=O)O[C@H]1CC[C@@]2(C)C(=CC[C@H]3[C@@H]4CC[C@H]([C@H](C)CCCC(C)C)[C@@]4(C)CC[C@@H]32)C1
23.6
